test: Solubility of the starting solid by the gravimetric method; format: physicochemical; conditions: organic solvent or mixture, thermodynamic from solid; DMF; RT; read-out: Solubility at RT
experimentalEndpoint: solubility (mg/mL)
Answers are plain numbers, in mg/mL.

Report solubility for CC(C)CC(=O)Nc1cncc(-c2ccc3[nH]nc(-c4nc5c(-c6cccc(F)c6)cncc5[nH]4)c3c2)c1 please.
12

* * *

assay: Rat pharmacokinetics after IA injection (plasma, knee joint); assay type: in vivo, Sprague Dawley rats; settings: Sprague Dawley, rat, cartilage, other: intra-articular injection; rats, single IA, 0.3 μg/knee, Day 90; read-out: Formula (I) concentration, Cartilage
experimentalEndpoint: concentration at 90 day

What does the record list as concentration at 90 day for CC(C)CC(=O)Nc1cncc(-c2ccc3[nH]nc(-c4nc5c(-c6cccc(F)c6)cncc5[nH]4)c3c2)c1 ?
78 ng/g

* * *

test: Solubility of the starting solid by the gravimetric method; type: physicochemical; settings: organic solvent or mixture, thermodynamic from solid; DCM; RT; read-out: Solubility at RT
experimentalEndpoint: solubility (µg/mL)
One number for each entry, in µg/mL.

# solubility lookup, item CC(C)CC(=O)Nc1cncc(-c2ccc3[nH]nc(-c4nc5c(-c6cccc(F)c6)cncc5[nH]4)c3c2)c1 [starting solid]
2000

* * *

assay: Solubility of the starting solid by the gravimetric method; format: physicochemical; settings: thermodynamic from solid; water; RT; read-out: Solubility at RT
experimentalEndpoint: solubility (µg/mL)
Give bare numbers, in µg/mL.

What solubility value was documented for this molecule, CC(C)CC(=O)Nc1cncc(-c2ccc3[nH]nc(-c4nc5c(-c6cccc(F)c6)cncc5[nH]4)c3c2)c1 [starting solid] ?
1000

* * *

assay: Rat pharmacokinetics after IA injection (plasma, knee joint); type: in vivo, Sprague Dawley rats; conditions: Sprague Dawley, rat, bone, other: intra-articular injection; rats, single IA, 1 μg/knee, Day 180; read-out: Formula (I) concentration, Bone
experimentalEndpoint: concentration at 180 day (ng/g)
One number for each entry, in ng/g.

Requested read-out: concentration at 180 day. Entry: CC(C)CC(=O)Nc1cncc(-c2ccc3[nH]nc(-c4nc5c(-c6cccc(F)c6)cncc5[nH]4)c3c2)c1 [compound of Formula (I)]
46.4

* * *

test: Rat pharmacokinetics after IA injection (plasma, knee joint); assay type: in vivo, Sprague Dawley rats; conditions: Sprague Dawley, rat, cartilage, other: intra-articular injection; rats, single IA, 0.3 μg/knee, Day 180; read-out: Formula (I) concentration, Cartilage
experimentalEndpoint: concentration at 180 day (ng/g)
Answers are plain numbers, in ng/g.

Record request: concentration at 180 day value, item CC(C)CC(=O)Nc1cncc(-c2ccc3[nH]nc(-c4nc5c(-c6cccc(F)c6)cncc5[nH]4)c3c2)c1 [compound of Formula (I)]
69.6

* * *

experiment: Dog pharmacokinetics after IA injection (plasma, cartilage, bone, synovial fluid); assay type: in vivo, beagle dogs; conditions: male, beagle, dog, cartilage, other: intra-articular; dogs, IA suspension, 30 μg/knee, Day 179; read-out: Compound of Formula (I) Concentration, Cartilage
experimentalEndpoint: concentration at 179 day (ng/g)
Numbers only, in ng/g.

Reported concentration at 179 day for CC(C)CC(=O)Nc1cncc(-c2ccc3[nH]nc(-c4nc5c(-c6cccc(F)c6)cncc5[nH]4)c3c2)c1 : what is it?
115

* * *

experiment: Solubility of the starting solid by the gravimetric method; format: physicochemical; conditions: organic solvent or mixture, thermodynamic from solid; n-Butanol; RT; read-out: Solubility at RT
experimentalEndpoint: solubility (µg/mL)
Numbers only, in µg/mL.

Recorded solubility for CC(C)CC(=O)Nc1cncc(-c2ccc3[nH]nc(-c4nc5c(-c6cccc(F)c6)cncc5[nH]4)c3c2)c1 , please?
1000
